Dear all, this message contains IC50 results, target or system Tyrosine-protein phosphatase non-receptor type 1 (Homo sapiens).
One number for each entry, in µM.

Previously resolved entries follow.
O=C(O)C(=O)c1ccc(OCc2cccc(COc3ccc(C(=O)C(=O)O)cc3)c2)cc1	53
O=C(O)C(=O)c1ccc(OCc2cc(COc3ccc(C(=O)C(=O)O)cc3)cc(COc3ccc(C(=O)C(=O)O)cc3)c2)cc1	13

Turning now to a further compound:
Query: // fetch Tyrosine-protein phosphatase non-receptor type 1 (Homo sapiens) IC50 for O=C(O)C(=O)c1ccc(OCc2ccc(COc3ccc(C(=O)C(=O)O)cc3)cc2)cc1
Result: 2.7
